Below, each entry is listed with its recorded melting point.

Worked set:
• COc1ccc(-c2cccc(NC(=O)N=c3[nH]c4ccccc4[nH]3)c2)cc1S(=O)(=O)N[C@H](CC(=O)O)c1ccccc1 [Example 4.88] = 151 °C (dec.)
• Cc1cc(C)c(S(=O)(=O)N[C@@H](Cc2ccc(-c3cccc(CNc4nc5ccccc5[nH]4)c3)cc2)C(=O)O)c(C)c1 [Example 18.4] = > 240 °C
• Cc1cc(C)c(S(=O)(=O)N[C@@H](Cc2ccc(-c3cccc(NC(=O)/N=c4\[nH]c5ccc(C(=O)O)cc5[nH]4)c3)cc2)C(=O)O)c(C)c1 [Example 1.189] = 256 °C (dec.)
• COc1ccc2[nH]/c(=N\C(=O)Nc3cccc(-c4ccc(OC)c(S(=O)(=O)NC(CC(=O)O)c5ccccc5)c4)c3)[nH]c2c1 (centres unmarked) [Example 4.105] = > 240 °C

# input Identify the reported melting point for the following entry. COc1ccc(-c2cccc(CNc3nc4ccccc4[nH]3)c2)cc1S(=O)(=O)NC(CC(=O)O)c1ccccc1 (centres unmarked) [Example 18.5]
# output > 240 °C

###

EXPERIMENTAL_ENDPOINT: melting point

Past entries and their recorded results:
- Cc1cc(C)c(S(=O)(=O)N[C@@H](Cc2ccc(-c3cccc(NC(=O)c4cccnc4)c3)cc2)C(=O)O)c(C)c1: > 240 °C
- COc1ccc(-c2cccc(NC(=O)NCc3cccnc3)c2)cc1S(=O)(=O)N[C@H](CC(=O)O)c1ccccc1: 224 °C (dec.)
- O=C(O)CC(NS(=O)(=O)c1cccc(-c2cccc(Nc3c(NCC(F)(F)F)c(=O)c3=O)c2)c1)c1cccnc1 (stereo not shown): 219 °C (dec.)

// next entry
# input Given Cc1cc(C)c(S(=O)(=O)N[C@@H](Cc2ccc(-c3cccc(Nc4c(NCc5ccccn5)c(=O)c4=O)c3)cc2)C(=O)O)c(C)c1 , respond with its melting point.
# output 214 °C (dec.)

###

Measured melting point, listed per entry.

- CC1(C)[C@H]2CCC1(CS(=O)(=O)N[C@@H](Cc1ccc(-c3cccc(N/C(=C/[N+](=O)[O-])NCc4ccccn4)c3)cc1)C(=O)O)C(=O)C2: 126 °C (dec.)
- O=C(O)[C@H](Cc1ccc(-c2cccc(CNc3ccccn3)c2)cc1)NS(=O)(=O)Cc1ccc(F)cc1: > 240 °C

Please turn your attention to the following entry.
# input Respond only with melting point recorded for O=C(O)CNS(=O)(=O)c1cccc(-c2cccc(Nc3c(NC4CC4)c(=O)c3=O)c2)c1
# output 204 °C (dec.)
